# targetEntity: A2B receptors (Homo sapiens, UniProt P29275)
# assayText: functional cAMP (HTRF) assay, recombinant HEK293 cells expressing human A2B receptor, agonist NECA
pIC50: −log10 of the molar value.
The entries below are paired with their reported pIC50.

Which measured pIC50 value corresponds to CCNCc1ccc(C(=O)Nc2nc3c(-c4ccccc4)ccc(OC)c3[nH]2)cc1 [compound 11] ?
> 7.00

Requested read-out: pIC50. Entry: COc1ccc(-c2ccc(F)cc2)c2nc(NC(=O)N3CCC(C)(O)CC3)[nH]c12 [compound 144]
> 6.00

Looking for the measured pIC50 of COc1ccc(-c2ccc(F)cc2)c2nc(NC(=O)c3ccc(C(=O)N(C)C)cc3)[nH]c12 [compound 316] , can you help?
> 8.00

Form field: reported pIC50 of C#CCC1(O)CCN(C(=O)Nc2nc3c(-c4cnn(C)c4)ccc(OC)c3[nH]2)CC1 [compound 92]
> 6.00

What value of measured pIC50 is listed for COCCn1cc(C(=O)Nc2nc3c(-c4cccc5c4CCN5)ccc(OC)c3[nH]2)cn1 [compound 283] ?
> 7.00

###

# targetEntity: human A1 receptor (Homo sapiens, UniProt P30542)
# Sequence (P30542 whole entry): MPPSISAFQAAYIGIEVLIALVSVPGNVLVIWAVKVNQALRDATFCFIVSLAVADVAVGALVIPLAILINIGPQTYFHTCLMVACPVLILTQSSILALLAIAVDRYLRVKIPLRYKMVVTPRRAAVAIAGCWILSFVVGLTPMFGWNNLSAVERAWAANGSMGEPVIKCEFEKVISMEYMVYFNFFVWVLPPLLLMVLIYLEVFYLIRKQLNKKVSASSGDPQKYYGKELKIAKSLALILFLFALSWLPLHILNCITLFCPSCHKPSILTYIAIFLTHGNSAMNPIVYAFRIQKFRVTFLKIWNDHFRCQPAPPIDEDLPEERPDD
# assayText: functional cAMP (HTRF) assay, recombinant CHO cells expressing human A1 receptor, forskolin, agonist CPA
# Description: The functional activities of human A2A, A2B, A1 and A3 receptors were determined by quantification of cAMP, being the second messenger for adenosine receptors. […] Cells were seeded into 384-well plates, forskolin, test compounds and agonists (CPA for A1- and IB-MECA for A3-receptor) were added. After 30 min incubation, HTRF reagents (cAMP dynamic 2, Cis Bio) were added and the cellular cAMP levels were determined using the ENVISION (Perkin Elmer) plate reader. […]
pIC50: −log10 of the molar value.
reportedMetric: pIC50

Observe how each entry below is paired with its result.
# structureSmiles, targetEntity, result
records = [
    ("COc1ccc(C2CCOCC2)c2nc(NC(=O)c3ccc(Cn4ccnc4)cc3)[nH]c12", "human A1 receptor (Homo sapiens, UniProt P30542)", "< 6.00"),
    ("COc1ccc(-c2ccccc2)c2nc(NC(=O)c3ccc(N4C(=O)CCC4=O)cc3)[nH]c12", "human A1 receptor (Homo sapiens, UniProt P30542)", "> 6.00"),
    ("COc1ccc(-c2ccccc2F)c2nc(NC(=O)c3cnn(C)c3)[nH]c12", "human A1 receptor (Homo sapiens, UniProt P30542)", "> 6.00"),
]

Now turn to the next compound.
Look up pIC50: COc1ccc(-c2ccccc2)c2nc(NC(=O)N3CCC(F)(F)CC3)[nH]c12
> 6.00

###

# targetEntity: A2B receptors (Homo sapiens)
# Sequence (P29275 1-332): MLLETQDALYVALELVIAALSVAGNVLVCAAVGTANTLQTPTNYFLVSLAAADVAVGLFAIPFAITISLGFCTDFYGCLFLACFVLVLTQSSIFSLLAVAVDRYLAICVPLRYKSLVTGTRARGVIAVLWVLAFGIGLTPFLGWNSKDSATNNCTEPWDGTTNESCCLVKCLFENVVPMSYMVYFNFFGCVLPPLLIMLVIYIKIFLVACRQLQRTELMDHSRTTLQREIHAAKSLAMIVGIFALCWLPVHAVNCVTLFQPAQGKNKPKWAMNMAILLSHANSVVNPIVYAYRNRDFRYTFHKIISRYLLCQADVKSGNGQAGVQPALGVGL
# assayText: functional cAMP (HTRF) assay, recombinant HEK293 cells expressing human A2B receptor, agonist NECA
# Assay type: cell-based
# Design: expressed in transfected cells; host or cells: HEK293
reportedMetric: IC50

# compound, targetEntity, reportedMetric, result
rows = [
    ("COc1ccc(-c2cnn(C3CCN(C(=O)OC(C)(C)C)CC3)c2)c2[nH]c(NC(=O)N3CCC(C)(O)CC3)nc12", "A2B receptors (Homo sapiens)", "IC50", "> 1000 nM"),
]

Look at this compound and give its reported IC50. COc1ccc(C2CCOCC2)c2nc(NC(=O)N3CCC(O)(Cc4ccccc4)CC3)[nH]c12
< 1000 nM

Entry COCCn1cc(C(=O)Nc2nc3c(-c4ccnc5[nH]ccc45)ccc(OC)c3[nH]2)cn1 has what IC50?
< 100 nM

Please report the recorded IC50 for COc1ccc(-c2ccccc2F)c2nc(NC(=O)N3CCC(C)(O)CC3)[nH]c12 .
< 100 nM

Request the reported IC50 associated with COc1ccc(-c2cnn(C)c2)c2nc(NC(=O)c3ccc(CN(C)C)cc3)[nH]c12
> 1000 nM

Need IC50, item COc1ccc(-c2ccccc2)c2[nH]c(NC(=O)c3ccc(C(=O)N4CCN(C)CC4)cc3)nc12
< 10 nM

Can you look up the measured IC50 of COc1ccc(-c2ccccc2)c2nc(NC(=O)c3ccnc(Br)c3)[nH]c12 for me?
< 100 nM

Could you tell me which IC50 is on file for COc1ccc(-c2ccccc2)c2nc(NC(=O)c3ccc(CN4CCCC4=O)cc3)[nH]c12 ?
< 10 nM

Could you share which IC50 value was measured for COc1ccc(C2CCOCC2)c2nc(NC(=O)c3ccnc(N4CCC5(CCOC5)C4)c3)[nH]c12 (centres unmarked) ?
> 1000 nM

Could you tell me which IC50 is on file for COc1ccc(N2CCOCC2)c2nc(NC(=O)c3ccc(O)c(N)c3)[nH]c12 ?
> 1000 nM

Quick one: IC50 for COc1ccc(-c2cnn(C)c2)c2nc(NC(=O)N3CCC(Oc4ccccc4)CC3)[nH]c12 ?
< 1000 nM

I am curious: what IC50 value has been reported for COc1ccc(-c2ccccc2)c2nc(NC(=O)c3cncs3)[nH]c12 ?
< 10 nM

For the compound COc1ccc(-c2ccc3cc[nH]c3c2)c2nc(NC(=O)N3CCC(C)(O)CC3)[nH]c12 , what IC50 is on record?
< 100 nM
